Listed next: entries and their corresponding protein stability index.
B1: PTPLAD1 (parent)
chain: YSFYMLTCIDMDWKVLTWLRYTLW

# Variants of: B1
# experimental protocol: protein stability index of a GFP-peptide fusion (GPS, HEK-293T) (PSI 1-6); higher = more stable;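 also: lentivirally expressed fusions sorted by FACS into six bins by GFP to DsRed ratio, PSI derived from sequencing read proportions per bin multiplied by bin number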
# condition info: c terminus: a fixed tail appended
measured quantity: protein stability index

record_sequence=YSFIMLTCIDMDWKVLTWLRYTLW measured_quantity="protein stability index" quantitative_readout=3.63
record_sequence=YSFYMLTCIDMDWKVLTWLNYTLW measured_quantity="protein stability index" quantitative_readout=4.06
record_sequence=KSFYMLTCIDMDWKVLTWLRYTLW measured_quantity="protein stability index" quantitative_readout=2.1
record_sequence=YSFYMLTCIDMDWKVFTWLRYTLW measured_quantity="protein stability index" quantitative_readout=3.23
record_sequence=YSGYMLTCIDMDWKVLTWLRYTLW measured_quantity="protein stability index" quantitative_readout=2.24
record_sequence=YSFYMLTCIDMDWTVLTWLRYTLW measured_quantity="protein stability index" quantitative_readout=3.16
record_sequence=YSFKMLTCIDMDWKVLTWLRYTLW measured_quantity="protein stability index" quantitative_readout=2.05
record_sequence=YSFYMLTCIDMDWKVLTWLRQTLW measured_quantity="protein stability index" quantitative_readout=2.17
record_sequence=YSFYMLTCIDMDWKVLTWWRYTLW measured_quantity="protein stability index" quantitative_readout=2.31
record_sequence=YSFYMLTCIDMDWKMLTWLRYTLW measured_quantity="protein stability index" quantitative_readout=1.03
record_sequence=YSFYMLTCIDFDWKVLTWLRYTLW measured_quantity="protein stability index" quantitative_readout=2.15
record_sequence=YSFYMLTCIDMDWKVLTFLRYTLW measured_quantity="protein stability index" quantitative_readout=3.34
record_sequence=YSFYYLTCIDMDWKVLTWLRYTLW measured_quantity="protein stability index" quantitative_readout=3.07
record_sequence=SSFYMLTCIDMDWKVLTWLRYTLW measured_quantity="protein stability index" quantitative_readout=2.07
record_sequence=YSFYMLVCIDMDWKVLTWLRYTLW measured_quantity="protein stability index" quantitative_readout=1.27
record_sequence=YSTYMLTCIDMDWKVLTWLRYTLW measured_quantity="protein stability index" quantitative_readout=1.68
record_sequence=YSFYMLTCIDMDWKVLTWLRYNLW measured_quantity="protein stability index" quantitative_readout=2.27
record_sequence=YSFYMLTCIDMDWKVLTWLRVTLW measured_quantity="protein stability index" quantitative_readout=2.28
record_sequence=YSFYMLTCIDMDWKVLTWLRETLW measured_quantity="protein stability index" quantitative_readout=3.44
record_sequence=YSFYMLTCIDMDWKVLDWLRYTLW measured_quantity="protein stability index" quantitative_readout=2.45
record_sequence=YSFYMLTCIDMDWKVLEWLRYTLW measured_quantity="protein stability index" quantitative_readout=2.15
record_sequence=YSEYMLTCIDMDWKVLTWLRYTLW measured_quantity="protein stability index" quantitative_readout=2.31
record_sequence=YSFYMLTCIGMDWKVLTWLRYTLW measured_quantity="protein stability index" quantitative_readout=4.97
record_sequence=YSFYMLTCIDMDWKVLTWLRYTDW measured_quantity="protein stability index" quantitative_readout=2.6
record_sequence=YSFYMLTCIDMDWKVLTALRYTLW measured_quantity="protein stability index" quantitative_readout=2.61
record_sequence=WSFYMLTCIDMDWKVLTWLRYTLW measured_quantity="protein stability index" quantitative_readout=3.32
record_sequence=YSMYMLTCIDMDWKVLTWLRYTLW measured_quantity="protein stability index" quantitative_readout=3.14
record_sequence=YSFHMLTCIDMDWKVLTWLRYTLW measured_quantity="protein stability index" quantitative_readout=3.11
record_sequence=YWFYMLTCIDMDWKVLTWLRYTLW measured_quantity="protein stability index" quantitative_readout=2.13
record_sequence=YSFYMLTCIDMDWKVLTWLRYTFW measured_quantity="protein stability index" quantitative_readout=2.46
record_sequence=YSFYMLTCIDMDWKVLTWERYTLW measured_quantity="protein stability index" quantitative_readout=2.83
record_sequence=YSFYMLTCTDMDWKVLTWLRYTLW measured_quantity="protein stability index" quantitative_readout=1.25
record_sequence=YSFYMLTCITMDWKVLTWLRYTLW measured_quantity="protein stability index" quantitative_readout=2.76
record_sequence=YSFYMLTMIDMDWKVLTWLRYTLW measured_quantity="protein stability index" quantitative_readout=1.73
record_sequence=YSFYMLTCILMDWKVLTWLRYTLW measured_quantity="protein stability index" quantitative_readout=1.38
record_sequence=YSFYMLTCIDMDWKVLRWLRYTLW measured_quantity="protein stability index" quantitative_readout=3.47
record_sequence=YSFYMLTKIDMDWKVLTWLRYTLW measured_quantity="protein stability index" quantitative_readout=3.09
record_sequence=YSFYMLTCIDMDWKVLTWLRRTLW measured_quantity="protein stability index" quantitative_readout=2.05
record_sequence=YSKYMLTCIDMDWKVLTWLRYTLW measured_quantity="protein stability index" quantitative_readout=1.69
record_sequence=YTFYMLTCIDMDWKVLTWLRYTLW measured_quantity="protein stability index" quantitative_readout=1.56
record_sequence=YSFYMLTCIDMDWKVDTWLRYTLW measured_quantity="protein stability index" quantitative_readout=3.41
record_sequence=ISFYMLTCIDMDWKVLTWLRYTLW measured_quantity="protein stability index" quantitative_readout=3.26
record_sequence=YSFEMLTCIDMDWKVLTWLRYTLW measured_quantity="protein stability index" quantitative_readout=1.77
record_sequence=YSFYMLTCIDMDWKVLTWLRYQLW measured_quantity="protein stability index" quantitative_readout=2.2
record_sequence=YSFYMLTCIDMDWKVLTWFRYTLW measured_quantity="protein stability index" quantitative_readout=3.32
record_sequence=ASFYMLTCIDMDWKVLTWLRYTLW measured_quantity="protein stability index" quantitative_readout=2.82
